tested on: Vero E6 infected with SARS-CoV-2; test: inhibition of SARS-CoV-2 cytopathic effect; higher = more antiviral protection, active = above 15; conditions: 833.33 nM; 48 h
PROPERTY_MEASURED: inhibition of SARS-CoV-2 cytopathic effect (%)
Report as a plain number; the unit % is understood.

CN1[C@@H]2C[C@@H](O)C[C@H]1[C@@H]1O[C@@H]12 [scopine]: 1.5
CCN(CC)CCOC(=O)C1(c2ccccc2)CCCC1 [caramiphen]: -0.96
N#C[C@@H]1CCCN1C(=O)CNC12CC3CC(CC(O)(C3)C1)C2 [vildagliptin]: -0.2
NS(=O)(=O)NCc1csc2ccccc12: 3.95
CCC(=O)O[C@]1(C(=O)COC(C)=O)CC[C@H]2[C@@H]3C[C@H](C)C4=CC(=O)C=C[C@]4(C)[C@H]3[C@@H](O)C[C@@]21C [methylprednisolone-aceponate]: 3.54

Q. Recorded inhibition of SARS-CoV-2 cytopathic effect for O=c1cc(N2CCOCC2)oc2c(-c3cccc4c3sc3ccccc34)cccc12 , please?
A. 8.27

Q. Need inhibition of SARS-CoV-2 cytopathic effect of O=C(Cc1ccc(-c2ccccc2)cc1)Nc1ccccn1 [difenpiramide] , thanks.
A. 6.97

Q. Please give the measured inhibition of SARS-CoV-2 cytopathic effect for this molecule: NCc1ccc(S(N)(=O)=O)cc1 [mafenide]
A. 2.7

Q. For C[C@@H]1CC(=O)NN=C1c1ccc(NN=C(C#N)C#N)cc1 [levosimendan] , what is its reported inhibition of SARS-CoV-2 cytopathic effect?
A. 1.84

FYI, the data here is from the supplement of paper PMC13380429.
